I'd appreciate it if you could supply folding stability dG unfold values for the items below.
Assay: folding stability dG unfold (combined trypsin and chymotrypsin); higher = more stable
Give the quantity in kcal/mol, number only.

Notebook: SAGGSAGGSAGGELVLKIKVKPGEKVKLKLKLFDKNGKLVEEFEVEVEVVKEGDTLYIRLSAGGSAGGSAGG [r7_63_TrROS_Hall] , folding stability dG unfold read as 3.67

Notebook: SAGGGSLSDIATVDTSSYTDPNNPASVTVTNVTIPDGSTVTVTYNPTTGTVTVTTATDGTTTTTTIPSSAGG [r13_960_JUSTAS] , folding stability dG unfold read as 1.42

Notebook: SAGGMVILVKDKDGRWRELSEEEIRRLAEELERRYNLEVEEVELEDGERYYLIRIEPPEVPGLSEEELSAGG [r13_790_TrROS_Hall] , folding stability dG unfold read as 2.23

* * *

I'd appreciate it if you could supply folding stability dG unfold values for the items below.
Experiment: folding stability dG unfold from trypsin proteolysis; higher = more stable
Give the quantity in kcal/mol, number only.

Notebook: SAGGPGWVTVEFWIPIEPDPNQTRDDVKEKAEEIVHEMAEYHPQFGITNVKVDVDPEEGWVKVSIVWPSAGG [r13_1011_TrROS] , folding stability dG unfold read as 1.47

Notebook: SAGGSAGGMLSPEVLEDPEKVIEFLKKMIPGLKIVVPPDAPPEVVEAAAKLAEETGIPVEIVVGSAGGSAGG [r6_129_TrMRF] , folding stability dG unfold read as 1.06

Notebook: SAGSITIPIDDPEEMKDQLKNIAENFGMSNQDAEQFKDQLKENIEIHRDGDRWYITIQPPPPPDPGQPPSAG [r5_717_TrROS] , folding stability dG unfold read as 0.51

Notebook: SAGGSAGGPKHVEIVITPDLRKEIEENQKEGDPPTLMEIAKEIAREFRANGMPVDIKILPPEDFSAGGSAGG [r6_815_TrROS] , folding stability dG unfold read as 0.216

Notebook: SAGGSAGGSMKYTLLSTRKNPDGTELRLIEVSEDPEKAKEYLESQGAVEIEFKKNIMTVTFKSSAGGSAGGS [r20_222_JUSTAS] , folding stability dG unfold read as -0.216

Notebook: SAGGSAGGSAGKVTLTIPFTNEDGTKYIAEFTFDELEVEEDVEIKIVSLGENFDLVLKPESAGGSAGGSAGG [r11_733_TrMRF] , folding stability dG unfold read as 1.47

Notebook: SAGGSAGGSAGGGMPVEMKITLYDPDGTKIGEYTLKVKSEEELKKAVEEKGYNYEVDKESAGGSAGGSAGGS [r10_958_JUSTAS] , folding stability dG unfold read as 0.198

* * *

Test: folding stability dG unfold (combined trypsin and chymotrypsin); higher = more stable
folding stability dG unfold below 3 kcal/mol gives False; folding stability dG unfold at or above it gives True.

Q. Is reported folding stability dG unfold greater than or equal to 3 kcal/mol here: SAGGSAMTLEEARELVERLVRELFPDAEVLDVDAVRLPDRLVLVDAVVRPKYRPDEVLRFRFLLGDSAGGSA [r15_627_TrMRF]
A. True

Q. Is reported folding stability dG unfold greater than or equal to 3 kcal/mol here: SAGGSAGGMNKIKVTTSVTTFEETVLAGNKTFTVTLLKKTTTITDPNSSKVTTITETKSPEELSSAGGSAGG [r6_752_JUSTAS]
A. False

Q. Is reported folding stability dG unfold greater than or equal to 3 kcal/mol here: KTVMIMFKNPEQILNQLREARDDGKTVSIMFPDEWINELKNLGFKIDKITDVQPMPGNDSYMVEIKIKPKDS [r1_173_TrROS]
A. False

Q. Is reported folding stability dG unfold greater than or equal to 3 kcal/mol here: SAGGSAGGSAGGGVKYRVLLPKDVNPEKAAELLKPYGVKVVSIEEVEEGFYLIEVEKPESAGGSAGGSAGGS [r10_591_TrMRF]
A. False

Q. Is reported folding stability dG unfold greater than or equal to 3 kcal/mol here: SMEEAIEEAIKKNEEAIAAGGGPVKVELEVPGYRIDLTFSPNGLKITNIEEKNSPDGIPSVKSTSDVPPPSA [r9_308_JUSTAS]
A. False

Q. Is reported folding stability dG unfold greater than or equal to 3 kcal/mol here: SAGGSAGGVISEEEIEAKAEEAKAEAIAAGLESKEVTITSPSGKVYKITVDVNSITIEKSPAAGSAGGSAGG [r6_270_JUSTAS]
A. False

Q. Is reported folding stability dG unfold greater than or equal to 3 kcal/mol here: SAGGPVVEKIRELLKELGYEVEVTDVKEDYVEIKVKLPDKEITLPDGSKIERLENGELRIWIPKEDLSAGGS [r8_297_TrROS_Hall]
A. True

Q. Is reported folding stability dG unfold greater than or equal to 3 kcal/mol here: SGDSIHIPPNDLEYAKRIVKDLLDNGRDTIMMNSPEYKKELKEALPGVKVEPVPPMPPPPPSPEDKDKLNSA [r9_639_TrROS]
A. False

Q. Is reported folding stability dG unfold greater than or equal to 3 kcal/mol here: SAGGSAGGSAGGSGPPSLPGVLVEIPEPLPGPEGTEFSDPKGYKYTYDPSNGKVLVERASAGGSAGGSAGGS [r4_78_JUSTAS]
A. False

Q. Is reported folding stability dG unfold greater than or equal to 3 kcal/mol here: SAGGSGKKVKIKINIVVVFPPGDPDLAKEIAKWFARTIARELQAQGFEDIKDIEIRVHVIPPNQPGFSAGGS [r16_289_TrROS]
A. True

Q. Is reported folding stability dG unfold greater than or equal to 3 kcal/mol here: SMVRITVYRNGKELSEEELRELAAELERETGRRITVEELARRLAARPGLTVRIEVFNEDGELVEERELRVSA [r9_1045_TrROS_Hall]
A. True

Q. Is reported folding stability dG unfold greater than or equal to 3 kcal/mol here: SAGGSAGGSAGKEYIVRITLPNGKVYEFPGKLEDVVKALPPEYKDAVIEVFDPRTGKRVSSAGGSAGGSAGG [r11_353_TrMRF]
A. True

Q. Is reported folding stability dG unfold greater than or equal to 3 kcal/mol here: SAGGSAGGSAGFKSVTIGSGTGGLTLTITDVTTGKNTVVNATSLEEAEKIGKEKGWKIILSSAGGSAGGSAG [r3_67_JUSTAS]
A. False

Q. Is reported folding stability dG unfold greater than or equal to 3 kcal/mol here: SAGKDEKLVKVIVKFNDKTFEVVVKEEDLKKLVESGILKVVGKIPGKNIVAIKVEVPPPKGDPVGPTPVSAG [r5_868_TrMRF]
A. False
